Biological target: T1, hVEGF-C (human, UniProt P49767)
T1 construct: unlabelled; also called human VEGF-C
T1 sequence (VEGF-C, looked up): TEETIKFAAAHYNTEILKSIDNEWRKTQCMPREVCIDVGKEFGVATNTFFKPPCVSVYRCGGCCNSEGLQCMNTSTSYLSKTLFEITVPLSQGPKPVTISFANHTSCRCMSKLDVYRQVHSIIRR
Assay: phage competition ELISA: phage-displayed clone incubated with increasing soluble hVEGF-C, unbound phage captured on hVEGF-C coated plate, anti-M13-HRP, OD450
assay-metric: pIC50
Hey, just a heads up that pIC50 is the negative log base 10 of the concentration in molar.

In the examples that follow, each entry is paired with its recorded pIC50.
VC1.11 (antibody, V domains shown, also called clone VC1.11) VH: EVQLVESGGGLVQPGGSLRLSCAASGFTFSDSDIHWVRQAPGKGLEWVAWISPYSGYTDYADSVKGRFTISADTSKNTAYLQMNSLRAEDTAVYYCVRLYDVIFDYWGQGTLVTVSS VL: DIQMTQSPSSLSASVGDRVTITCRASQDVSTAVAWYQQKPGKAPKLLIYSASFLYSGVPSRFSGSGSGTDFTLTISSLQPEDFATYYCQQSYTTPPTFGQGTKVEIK	7.60
VC1.3 (antibody, V domains shown, also called clone VC1.3) VH: EVQLVESGGGLVQPGGSLRLSCAASGFTFSDSDIHWVRQAPGKGLEWVAWISPYSGYTDYADSVKGRFTISADTSKNTAYLQMNSLRAEDTAVYYCVRLFEVIFDYWGQGTLVTVSS VL: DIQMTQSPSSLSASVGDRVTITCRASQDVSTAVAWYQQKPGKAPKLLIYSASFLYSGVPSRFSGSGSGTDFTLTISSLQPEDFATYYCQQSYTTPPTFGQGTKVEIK	7.66

In the following, a different binder is considered.
pIC50 measured on VC1.6 (antibody, V domains shown, also called clone VC1.6) VH: EVQLVESGGGLVQPGGSLRLSCAASGFTFSDSDIHWVRQAPGKGLEWVAWISPYSGYTDYADSVKGRFTISADTSKNTAYLQMNSLRAEDTAVYYCVRLFDVIFDYWGQGTLVTVSS VL: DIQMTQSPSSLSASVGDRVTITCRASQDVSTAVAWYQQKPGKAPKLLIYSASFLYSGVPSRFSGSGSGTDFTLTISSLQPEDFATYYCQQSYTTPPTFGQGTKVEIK = 7.81
